- assay protocol: NCI Yeast Anticancer Drug Screen. Data for the mec2-1 strain (AID 157)
- settings: S. cerevisiae mec2-1 strain, at 50.0 µM
- Description: Growth inhibition of yeast strains with defined genetic alterations is measured as a screen for potential anti-cancer activity. Selected strains with alterations in DNA damage repair or cell cycle control were exposed to compounds and growth inhibition was measured relative to vehicle treated controls. The strain used in this assay is mec2-1
This is part of a sample that, as a whole, favours compounds with a hit. Of some 79,000 tested, about 15% had one in any assay. Active and inactive are the calls of the source. Rule as the data show it: active = growth inhibition above about 70%; inactive = the rest.
Pick one: 1.0 (active), 0.0 (inactive)

Assay result, entry CCCCCCCSCc1nc2ccccc2c(C)[n+]1[O-] — outcome? 1.0

Assay result, entry CCC(C)(C)c1cc(Br)c(NS(=O)(=O)c2ccc(NC(C)=O)cc2)c(Br)c1 — outcome? 0.0

Assay result, entry C=CCC1(OC(C)=O)CC2C(=O)C(=O)C(C1)N2OC(=O)c1ccccc1 (stereo unspecified) — outcome? 1.0

Assay result, entry CC(C)c1cc(C(C)C)c(Cl)c(Cl)c1O (tested in a mixture with another compound) — outcome? 1.0

Assay result, entry COc1ccc(Cc2nncc3ccccc23)cc1OC — outcome? 1.0

Assay result, entry Nc1nc(-c2ccccn2)cc2cc(Cl)ccc12 — outcome? 0.0

Assay result, entry Cc1ccc(/C=C/C(=O)/C=C/c2ccc(C)o2)o1 — outcome? 1.0

Assay result, entry N#Cc1ccc(Oc2nc3ccccc3nc2-c2ccccc2)cc1 — outcome? 0.0

Assay result, entry ClCc1ccc(OCc2ccccc2)c(OCc2ccccc2)c1 — outcome? 0.0

Assay result, entry O=C(CSc1nnc(-c2ccc(N=Cc3ccc(Cl)cc3)cc2)o1)Nc1ccc(Cl)cc1Cl — outcome? 1.0

Assay result, entry O=C1C=CC(=O)N1c1ccc(-c2ccc(N3C(=O)C=CC3=O)cc2)cc1 — outcome? 0.0

###

- assay protocol: NCI Yeast Anticancer Drug Screen. Data for the mlh1 rad18 strain (AID 175)
- settings: S. cerevisiae mlh1 rad18 strain growth inhibition; at 50.0 µM (retest, dose inferred, filed as 5.0)
Compounds without any hit were thinned out: in the full panel of roughly 79,000, 15% have a hit. Calls of active or inactive are those of the source. No stated cut-off is given here; in the data, active means growth inhibition above about 70%; inactive means the rest. Where a SMILES comes first, the peptide text is derived from it. [ ]: non-standard residue; d: D form. The star is where a group is joined. Phe(4-NO2) = N[CH](Cc1ccc([N+](=O)[O-])cc1)C(=O)O; Boc = CC(C)(C)OC(=O)*
Pick one: active, inactive

Assay result, entry C[C@]12CC[C@H](O)CC1=CC[C@@H]1C2CC[C@]2(C)C(=O)N(N)C(=O)CC12 (stereo partly drawn) — outcome? active

Assay result, entry CC(C)N(C(=O)C12C3C4C5(C#N)C3C1(C#N)C5C42I)C(C)C (stereo not drawn) — outcome? inactive

Assay result, entry O=C(CCCN1CCC(C(O)c2ccc(F)cc2)CC1)c1ccc(F)cc1 (stereo not drawn) — outcome? active

Assay result, entry CC(C)c1cc2c(cc1O)C(O)C1(O)CCCC(C)(C)[C@H]1CC2 (stereo partly drawn) — outcome? active

Assay result, entry CC/C(=C\c1cccc(OC)c1)c1ccncc1 — outcome? active

Assay result, entry C/C(CCn1[nH]c(=O)ccc1=O)=N\Nc1ccc([N+](=O)[O-])cc1[N+](=O)[O-] — outcome? active

Assay result, entry C[CH2][Ge]([CH2]C)[CH2]C.C[CH2][Ge]([Cl])[CH2]C.C[CH2][Ge][CH2]C — outcome? active

Assay result, entry CCCCC1(CC)COC(c2ccccc2OC)OC1 (stereo not drawn) — outcome? active

Assay result, entry S=C1NCCNC(=S)SS1 — outcome? active

Assay result, entry CC1CCN(CCOC(=O)C(c2ccccc2)C2C=CCCC2)C1C (stereo not drawn) — outcome? active

Assay result, entry COc1ccccc1C1c2cc3c(cc2OC(N2CCOCC2)C1C)OCO3 (stereo not drawn) — outcome? inactive

Assay result, entry OCCc1ccc(-n2cnc3c(Nc4ccc(Cl)cc4)ncnc32)cc1 — outcome? active

Assay result, entry O=[N+]([O-])c1ccc(NS(=O)(=O)c2ccc(Cl)c(Cl)c2Cl)c([N+](=O)[O-])c1 — outcome? inactive

Assay result, entry CCNc1ncnc2c1ncn2Cc1ccco1 — outcome? inactive

Assay result, entry O=C1C=C/C(=C(/c2ccc(O)c(O)c2)c2ccccc2S(=O)(=O)O)C=C1O — outcome? inactive

Assay result, entry [N-]=[N+]=CC(=O)CCC(NC(=O)OCc1ccccc1)C(=O)OCc1ccccc1 (stereo not drawn) — outcome? active

Assay result, entry CC1NS(=O)(=O)N(C)C1=O (stereo not drawn) — outcome? inactive

Assay result, entry C/C(=N/NC(=S)N1CCCCC1)c1cccc(/C(C)=N\NC(=S)N2CCCCC2)n1 — outcome? active

Assay result, entry O=c1cccccc1[O-].O=c1cccccc1[O-].O=c1cccccc1[O-].[Nd+3] — outcome? inactive

Assay result, entry O=C(Nc1ccc(C(=O)Nc2ccc3c(O)cc(S(=O)(=O)O)cc3c2)cc1)c1ccccc1 — outcome? inactive

Assay result, entry COc1ccc(C2C3=C(CC(C)(C)CC3=O)Oc3cc4c(cc32)OCO4)c(OC)c1 (stereo not drawn) — outcome? inactive

Assay result, entry COc1ccc(-c2c(C#N)c(S)n(NS(=O)(=O)c3ccc(C)cc3)c(=O)c2C#N)cc1 — outcome? inactive

Assay result, entry CCCCCCCSCC1C(=O)C23CC1CCC2C12COC(O)C1C(C)(C)C(O)CC2OC3=O (stereo not drawn) — outcome? active

Assay result, entry CN(C)CCSCCN1c2ccccc2Sc2ccc(Cl)cc21 — outcome? active

Assay result, entry CCn1c(C)cc(=O)n1-c1ccc([N+](=O)[O-])cc1 — outcome? inactive

Assay result, entry COc1ccc2nc3cc(Cl)ccc3c(NCCC[N+](C)(C)CCCCCCCCCC[N+](C)(C)CCCNc3c4ccc(Cl)cc4nc4ccc(OC)cc34)c2c1 — outcome? active

Assay result, entry CCCCCCC[CH2][Sn]([CH2]CCCCCCC)([O]c1cccc2cccnc12)[O]c1cccc2cccnc12 — outcome? inactive

Assay result, entry O=C(O)/C=C/c1ccc(Cl)cc1Cl — outcome? active

Assay result, entry Cn1cc(-c2c3c(cc4c2OCO4)OCO3)c2ccccc21 — outcome? active

Assay result, entry Cc1ccc(O)c(C(C)c2ccccc2)c1 (stereo not drawn) — outcome? active

Assay result, entry Oc1ccc(C(=C(Br)c2ccccc2)c2ccc(O)cc2)cc1 — outcome? active

Assay result, entry O=C(CS)Nc1ccccc1 — outcome? active

Assay result, entry NNc1nc(Nc2ccccc2)nc(Nc2ccccc2)n1 — outcome? inactive

Assay result, entry CNC(=O)CCC(NC(=O)OC(C)(C)C)C(=O)NC(Cc1ccc([N+](=O)[O-])cc1)C(=O)NCC(=O)NC (stereo not drawn) (Boc-Glu(NHMe)-[Phe(4-NO2)]-Gly-NHMe; configuration not given here) — outcome? inactive

Assay result, entry Clc1ccc(/C=N/Nc2c3ccccc3nc3ccccc23)c(Cl)c1 — outcome? active

Assay result, entry COc1cccc2c1OC(c1ccc(C#N)cc1)C([N+](=O)[O-])=C2 (stereo not drawn) — outcome? active

Assay result, entry COc1ccc(N)c([N+](=O)[O-])c1 — outcome? inactive

Assay result, entry CCOC(=O)C(C(=O)OCC)c1ccc([N+](=O)[O-])o1 — outcome? active
